# credit: paper PMC11971462

ASSAYED_TARGET: recombinant hBChE (Homo sapiens, UniProt P06276)
Sequence (P06276 29-602): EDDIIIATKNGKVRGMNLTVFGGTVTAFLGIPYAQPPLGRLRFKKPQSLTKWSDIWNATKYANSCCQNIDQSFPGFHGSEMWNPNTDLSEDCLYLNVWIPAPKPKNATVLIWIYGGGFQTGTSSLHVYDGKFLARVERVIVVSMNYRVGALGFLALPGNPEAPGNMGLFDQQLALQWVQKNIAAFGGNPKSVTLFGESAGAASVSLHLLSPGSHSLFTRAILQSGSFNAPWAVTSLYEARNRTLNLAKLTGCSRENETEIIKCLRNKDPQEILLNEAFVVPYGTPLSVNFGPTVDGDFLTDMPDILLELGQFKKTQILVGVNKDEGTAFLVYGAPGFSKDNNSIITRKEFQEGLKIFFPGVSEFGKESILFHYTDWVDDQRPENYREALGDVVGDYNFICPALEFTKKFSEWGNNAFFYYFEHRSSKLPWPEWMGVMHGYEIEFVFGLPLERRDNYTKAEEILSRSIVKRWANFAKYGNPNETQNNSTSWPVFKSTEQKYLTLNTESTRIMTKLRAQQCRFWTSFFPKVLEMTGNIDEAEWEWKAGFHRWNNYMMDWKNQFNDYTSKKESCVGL
PROTOCOL_NOTES: BChE inhibition and kinetics, Ellman's colorimetric method
METRIC_NAME: IC50 (nM)
Give a bare numeral; the unit nM is implied.

If you can, please state the reported IC50 value of C#CCN(Cc1cc2cc(OCCCN3CCCCC3)ccc2n1S(=O)(=O)c1ccccc1)C(=O)CCCCCCC(=O)NO .
2540

====

ASSAYED_TARGET: recombinant hBChE (Homo sapiens, UniProt P06276)
PROTOCOL_NOTES: BChE inhibition and kinetics, Ellman's colorimetric method
MEASUREMENT_PARAMETERS: from Lineweaver-Burk and secondary plots
METRIC_NAME: Ki (µM)
Give a bare numeral; the unit µM is implied.

If you can, please state the reported Ki value of C#CCN(Cc1cc2cc(OCCCN3CCCCC3)ccc2n1S(=O)(=O)c1ccccc1)C(=O)CCCCCCC(=O)NO .
0.87

====

Tested on: GNS166 patient-derived glioma stem cells
PROTOCOL_NOTES: MTT cell viability
Assay type: cell-based
MEASUREMENT_PARAMETERS: Homo sapiens, 72 h
METRIC_NAME: pIC50
# pIC50 = -log10(concentration in molar units)

If you can, please state the reported pIC50 value of C#CCN(Cc1cc2cc(OCCCN3CCCCC3)ccc2n1S(=O)(=O)c1ccccc1)C(=O)CCCCCCC(=O)NO [DDI199] .
4.89

====

Test system: gastric cancer MKN45 cells
PROTOCOL_NOTES: MTT cell viability
Type: cell-based
MEASUREMENT_PARAMETERS: Homo sapiens, MKN-45, 72 h
METRIC_NAME: pIC50
# pIC50 = -log10(concentration in molar units)

If you can, please state the reported pIC50 value of C#CCN(Cc1cc2cc(OCCCN3CCCCC3)ccc2n1S(=O)(=O)c1ccccc1)C(=O)CCCCCCC(=O)NO .
5.58

====

ASSAYED_TARGET: recombinant hMAO-B (Homo sapiens)
Sequence (P27338 whole entry): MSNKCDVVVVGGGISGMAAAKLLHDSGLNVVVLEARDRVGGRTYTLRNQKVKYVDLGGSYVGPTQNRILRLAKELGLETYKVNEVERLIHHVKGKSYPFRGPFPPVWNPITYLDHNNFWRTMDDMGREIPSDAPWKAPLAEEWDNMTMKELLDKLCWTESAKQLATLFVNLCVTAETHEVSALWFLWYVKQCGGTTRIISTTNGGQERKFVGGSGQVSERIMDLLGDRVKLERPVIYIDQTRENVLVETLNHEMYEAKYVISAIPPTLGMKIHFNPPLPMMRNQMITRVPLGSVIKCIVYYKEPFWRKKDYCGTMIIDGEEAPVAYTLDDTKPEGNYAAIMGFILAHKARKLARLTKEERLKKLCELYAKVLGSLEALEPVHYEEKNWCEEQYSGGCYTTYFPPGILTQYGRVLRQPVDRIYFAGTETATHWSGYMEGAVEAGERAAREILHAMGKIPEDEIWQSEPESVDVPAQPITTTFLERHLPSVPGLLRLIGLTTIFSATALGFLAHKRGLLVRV
PROTOCOL_NOTES: biochemical
MEASUREMENT_PARAMETERS: read-out: MAO-B IC50
METRIC_NAME: pIC50
# pIC50 = -log10(concentration in molar units)

If you can, please state the reported pIC50 value of C#CCN(Cc1cc2cc(OCCCN3CCCCC3)ccc2n1S(=O)(=O)c1ccccc1)C(=O)CCCCCCC(=O)NO .
4.83
